Biological target: polymerization-deficient p62^1–102 (D69A/D73A) (human) (UniProt Q13501)
Experiment: ITC; VP-ITC, 25 °C, 10 mM HEPES pH 7.5, 150 mM NaCl; p62 D69A/D73A in the cell (5–20 μM), partner PB1 domain in the syringe (25–100 μM); one-site model; mean of three measurements
pKd: −log10 of the molar value.
reported property: pKd

| binder | reported property | assay value |
| --- | --- | --- |
| MEKK3^43–127 (MEKK3–PB1) (domain or fragment) SDVRIKFEHNGERRIIAFSRPVKYEDVEHKVTTVFGQPLDLHYMNNELSILLKNQDDLDKAIDILDRSSSMKSLRILLLSQDRNH | pKd | 7.57 |

Source: paper PMC6978347
